Measured target: CDK1/Cyclin B1 (Homo sapiens (Human))
Sequence (P06493 whole entry): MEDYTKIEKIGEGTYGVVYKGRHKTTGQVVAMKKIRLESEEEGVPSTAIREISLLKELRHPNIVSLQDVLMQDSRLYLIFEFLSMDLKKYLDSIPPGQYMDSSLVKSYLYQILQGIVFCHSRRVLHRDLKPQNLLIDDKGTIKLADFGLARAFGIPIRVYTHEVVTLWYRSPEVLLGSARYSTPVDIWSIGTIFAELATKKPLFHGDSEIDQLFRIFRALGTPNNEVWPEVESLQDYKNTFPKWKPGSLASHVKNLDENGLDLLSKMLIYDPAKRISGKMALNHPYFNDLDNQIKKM
Sequence (P14635 whole entry partner): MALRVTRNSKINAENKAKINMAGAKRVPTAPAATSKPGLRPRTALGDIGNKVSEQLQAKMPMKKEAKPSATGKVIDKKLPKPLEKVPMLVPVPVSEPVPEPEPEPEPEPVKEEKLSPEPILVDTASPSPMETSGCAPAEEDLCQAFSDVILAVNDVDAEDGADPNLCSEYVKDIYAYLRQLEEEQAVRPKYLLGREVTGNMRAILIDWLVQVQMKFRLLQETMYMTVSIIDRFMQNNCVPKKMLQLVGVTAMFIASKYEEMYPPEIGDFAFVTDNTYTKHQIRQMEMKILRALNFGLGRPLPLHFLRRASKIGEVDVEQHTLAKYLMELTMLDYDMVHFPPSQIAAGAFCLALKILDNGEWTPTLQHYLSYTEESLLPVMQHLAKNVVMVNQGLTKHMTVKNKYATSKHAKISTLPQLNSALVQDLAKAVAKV
Procedure details: CDK1/Cyclin B1 ADP-Glo Kinase Assay
Condition details: 80 uM ATP
IC50 values by entry

| Compound | IC50 |
| --- | --- |
| CCN1CC2(C1)CN(c1ccc(Nc3ncc4cccc(N5CC6(CCS6(=O)=O)C5)c4n3)nc1)C2 | > 2000 nM |
| CN1CCC2(C1)CN(c1cccc3cnc(NC4CCN(S(C)(=O)=O)CC4)nc13)C2 | 500 to 2000 nM |
| CC(=O)N1CCC2(CCN(c3cc(C(F)F)cc4cnc(NC5CCN(S(C)(=O)=O)CC5)nc34)C2)C1 (stereo not drawn) | 200 to 500 nM |
| CC1(CCS(=O)(=O)N2CCC(Nc3ncc4cc(C(F)F)cc(N5CC6(CCNC6)C5)c4n3)CC2)CC1 | < 200 nM |
| CN1Cc2ccc(Nc3ncc4cc(C(F)F)cc(N5CCC6(CN(C)C6)C5)c4n3)cc2C1 | 500 to 2000 nM |
| CC1(CS(=O)(=O)N2CCC(Nc3ncc4cc(C(F)F)cc(N5CC6(CCNC6)C5)c4n3)CC2)CC1 | < 200 nM |
| CS(=O)(=O)N1CCC(Nc2ncc3cccc(C4CC5(CNCCO5)C4)c3n2)CC1 (stereo not drawn) | < 200 nM |
| O=S(=O)(C1CC1)N1CCC(Nc2ncc3cc(C(F)F)cc(N4CC5(C4)CN(C4CC4)C5)c3n2)CC1 | 200 to 500 nM |
| O=S(=O)(N1CCC(Nc2ncc3cc(C(F)F)cc(N4CC5(CCNC5)C4)c3n2)CC1)C1(C(F)F)CC1 | < 200 nM |
| CS(=O)(=O)N1CCC(Nc2ncc3cc(C(F)(F)F)cc(N4CC5(CNCC5(F)F)C4)c3n2)CC1 | 500 to 2000 nM |

Q) # lookup: IC50 of CS(=O)(=O)N1CCC(Nc2ncc3cccc(C4CC5(CCNC5)C4)c3n2)CC1 (stereo not drawn)
A) < 200 nM

---

IC50 listing for selected molecules.
System: OVCAR-3 cells
Procedure details: Cell Growth Inhibition, OVCAR-3 (CellTiterGlo, 6 days)
Assay type: cell-based
Condition details: Homo sapiens, 144 h; OVCAR-3, 6-day treatment, CellTiterGlo 2.0

Use these answered entries as a reference point.
| Molecule | Quantity kind | Reported result |
| --- | --- | --- |
| CC(=O)N1CCC2(CCN(c3cccc4cnc(Nc5ccc6c(c5)CCN(C)C6)nc34)C2)C1 (stereo not drawn) | IC50 | 500 to 2000 nM |
| O=S(=O)(c1ccc(C(F)(F)F)nc1)N1CCC(Nc2ncc3cc(C(F)F)cc(N4CC5(CCNC5)C4)c3n2)CC1 | IC50 | < 200 nM |
| CN1CCC2(C1)CN(c1cc(C(F)F)cc3cnc(NC4CCN(S(=O)(=O)C5CC5)CC4)nc13)C2 | IC50 | 500 to 2000 nM |
| CN1Cc2ccc(Nc3ncc4cc(C(F)F)cc(N5CC6(C5)CN(S(C)(=O)=O)C6)c4n3)cc2C1 | IC50 | 500 to 2000 nM |
| CC1(CCS(=O)(=O)N2CCC(Nc3ncc4cc(C(F)F)cc(N5CC6(CCNC6)C5)c4n3)CC2)CC1 | IC50 | 500 to 2000 nM |
| CN1CC2(CCN(c3cc(C(F)F)cc4cnc(NC5CCN(S(=O)(=O)C6(C)CC6)CC5)nc34)C2)C1 | IC50 | 500 to 2000 nM |
| CN1CC2(CCN(c3cccc4cnc(Nc5ccc(N6CC7(COC7)C6)cn5)nc34)C2)C1 | IC50 | > 2000 nM |
| CN1CC2(CCC1=O)CCN(c1cccc3cnc(NC4CCN(S(C)(=O)=O)CC4)nc13)C2 (stereo not drawn) | IC50 | > 2000 nM |
| CC1(CS(=O)(=O)N2CCC(Nc3ncc4cc(C(F)F)cc(N5CC6(CCNC6)C5)c4n3)CC2)CC1 | IC50 | 500 to 2000 nM |
| CS(=O)(=O)N1CCC(Nc2ncc3cc(C(F)F)cc(C4CC5(C4)CN(CC(F)(F)CO)C5)c3n2)CC1 | IC50 | < 200 nM |

Q) Which measured IC50 value corresponds to CN1Cc2ccc(Nc3ncc4cc(C(F)F)cc(N5CC6(CN(C)C6)C5)c4n3)cc2C1 ?
A) 500 to 2000 nM

Q) What about O=S(=O)(N1CCC(Nc2ncc3cc(C(F)F)cc(N4CCC5(CNC5)C4)c3n2)CC1)C1(C(F)F)CC1 ?
A) 200 to 500 nM

Q) Do the same for O[C@@H]1COCC[C@H]1Nc1ncc2cc(C(F)F)cc(N3CC(F)(F)C4(CNC4)C3)c2n1 (racemic) please
A) > 2000 nM

Q) And what about the molecule CS(=O)(=O)N1CCC(Nc2ncc3cc(C(F)F)cc(N4CC5(CCNCC5(F)F)C4)c3n2)CC1 ?
A) 500 to 2000 nM

Q) Now consider CS(=O)(=O)N1CCC(Nc2ncc3cccc(N4CC5(CCNC5)C4)c3n2)CC1 and answer again.
A) 500 to 2000 nM
